TEST_DESCRIPTION: Catalepsy test (i.p., rats; number of cataleptic animals recorded every 30 minutes over 6 hours)
Type: in vivo, rat
CONDITION_DESCRIPTION: rat, in vivo, ip; rats, intraperitoneal, 6-hour period; read-out: ED50 (dose at which 50 percent of the animals are cataleptic)
TEST_READOUT: TD50 at 6 h

What value of measured TD50 at 6 h is listed for O=C(O)/C=C\C(=O)O.O=C1OCCN1CCN1CCN(C2Cc3cc(Cl)ccc3Sc3ccc(F)cc32)CC1 (centres unmarked) ?
45 mg/kg

What value of measured TD50 at 6 h is listed for CSc1ccc2c(c1)C(N1CCN(CCN3CCOC3=O)CC1)Cc1cc(C)ccc1S2.O=C(O)/C=C\C(=O)O (centres unmarked) ?
45 mg/kg

What value of measured TD50 at 6 h is listed for Cc1ccc2c(c1)CC(N1CCN(CCN3CCCC3=O)CC1)c1cc(Cl)ccc1S2.O=C(O)/C=C\C(=O)O (centres unmarked) ?
> 100 mg/kg

What value of measured TD50 at 6 h is listed for O=C(O)/C=C\C(=O)O.O=C1OCCN1CCN1CCN(C2Cc3cc(Cl)ccc3Sc3cc(F)ccc32)CC1 (centres unmarked) ?
> 100 mg/kg

What value of measured TD50 at 6 h is listed for CN(C)CCCN1c2ccccc2Sc2ccc(Cl)cc21 [Chlorpromazine, reference compound] ?
6 mg/kg

====

System: rats
TEST_DESCRIPTION: Catalepsy test (i.p., rats; number of cataleptic animals recorded every 30 minutes over 6 hours)
Type: in vivo, rat
CONDITION_DESCRIPTION: as compared to chlorpromazine

| COMPOUND | cataleptic activity in words |
| --- | --- |
| Cc1ccc2c(c1)CC(N1CCN(CCN3CCCC3=O)CC1)c1cc(Cl)ccc1S2.O=C(O)/C=C\C(=O)O (centres unmarked) [Product A] | no cataleptic effect |
| O=C(O)/C=C\C(=O)O.O=C1OCCN1CCN1CCN(C2Cc3cc(Cl)ccc3Sc3cc(F)ccc32)CC1 (centres unmarked) [Product B] | no cataleptic effect |

====

Reported selectivity ratio is given for each of the following compounds.
TEST_DESCRIPTION: "Pole Climbing" Test
Format: in vivo, rat
CONDITION_DESCRIPTION: rat, in vivo, po; rats, p.o.; higher quotient = greater selectivity of neuroleptic action; read-out: Quotient ED10 (blocking of the unconditioned reaction) / ED50 (blocking of the conditioned reaction)
Could you keep your reply to the number by itself?

| COMPOUND | selectivity ratio |
| --- | --- |
| CSc1ccc2c(c1)C(N1CCN(CCN3CCOC3=O)CC1)Cc1cc(C)ccc1S2.O=C(O)/C=C\C(=O)O (stereo not shown) [Product E, maleate] | 12 |
| Cc1ccc2c(c1)CC(N1CCN(CCN3CCOC3=O)CC1)c1cc(F)ccc1S2 (stereo not shown) | 23 |
| O=C(O)/C=C\C(=O)O.O=C1OCCN1CCN1CCN(C2Cc3cc(Cl)ccc3Sc3ccc(F)cc32)CC1 (stereo not shown) [Product D, maleate] | 7.6 |

Kindly review the next compound as well.
What value of measured selectivity ratio is listed for CN(C)CCCN1c2ccccc2Sc2ccc(Cl)cc21 [Chlorpromazine, reference compound] ?
2.5

====

TEST_DESCRIPTION: Acute toxicity in the mouse
CONDITION_DESCRIPTION: in vivo, po
Reported LD50 at 24 h is given for each of the following compounds.
Express the result in mg/kg but write the number alone.

Examples with answers:
| COMPOUND | LD50 at 24 h [mg/kg] |
| --- | --- |
| Cc1ccc2c(c1)CC(N1CCN(CCN3CCCC3=O)CC1)c1cc(Cl)ccc1S2.O=C(O)/C=C\C(=O)O (stereo not drawn) | 3750 |
| Cc1ccc2c(c1)CC(N1CCN(CCN3CCOC3=O)CC1)c1cc(F)ccc1S2 (stereo not drawn) | 1880 |
| O=C(O)/C=C\C(=O)O.O=C1OCCN1CCN1CCN(C2Cc3cc(Cl)ccc3Sc3cc(F)ccc32)CC1 (stereo not drawn) | 900 |
| CN(C)CCCN1c2ccccc2Sc2ccc(Cl)cc21 [Chlorpromazine, reference compound] | 200 |

What value of measured LD50 at 24 h is listed for CSc1ccc2c(c1)C(N1CCN(CCN3CCOC3=O)CC1)Cc1cc(C)ccc1S2.O=C(O)/C=C\C(=O)O (stereo not drawn) ?
3750

What value of measured LD50 at 24 h is listed for O=C(O)/C=C\C(=O)O.O=C1OCCN1CCN1CCN(C2Cc3cc(Cl)ccc3Sc3ccc(F)cc32)CC1 (stereo not drawn) ?
450
